target: human GLP-1 receptor (human, UniProt P43220 24-463); experiment: cell-based or functional assay
MEASURED QUANTITY: cAMP EC50 (assay 2, 4.4% human serum albumin) (pM)
Just the number please, in pM, no unit attached.

Use the examples below as a reference point.
{"columns": ["BINDER", "UNITS", "RECORDED NUMBER"],
 "data": [
  ["HSQGTFTSDKSSYLDSRRARDFVAWLEAGG (X10 = K(gE-palm); C-terminal amide) [G796]", "pM", 140],
  ["HSQGTFTSDKSSYLDSRSARDFVAWLEAGG (X10 = K(gE-palm); C-terminal amide) [G865]", "pM", 150],
  ["HSQGTFTSDKSKYLEGQAAKEFIAWLEKGR (X10 = K(gE-palm); C-terminal amide) [G812]", "pM", 316]
]}

Look up cAMP EC50 (assay 2, 4.4% human serum albumin): HSQGTFTSDKSRYLDSRSARDFVAWLEAGG (X10 = K(gE-palm); C-terminal amide) [G849] 172
